Field: pEC50. Provide a value for each of the compounds that follow.
Target: CB1 receptor (Homo sapiens, UniProt P21554)
Sequence (P21554 whole entry): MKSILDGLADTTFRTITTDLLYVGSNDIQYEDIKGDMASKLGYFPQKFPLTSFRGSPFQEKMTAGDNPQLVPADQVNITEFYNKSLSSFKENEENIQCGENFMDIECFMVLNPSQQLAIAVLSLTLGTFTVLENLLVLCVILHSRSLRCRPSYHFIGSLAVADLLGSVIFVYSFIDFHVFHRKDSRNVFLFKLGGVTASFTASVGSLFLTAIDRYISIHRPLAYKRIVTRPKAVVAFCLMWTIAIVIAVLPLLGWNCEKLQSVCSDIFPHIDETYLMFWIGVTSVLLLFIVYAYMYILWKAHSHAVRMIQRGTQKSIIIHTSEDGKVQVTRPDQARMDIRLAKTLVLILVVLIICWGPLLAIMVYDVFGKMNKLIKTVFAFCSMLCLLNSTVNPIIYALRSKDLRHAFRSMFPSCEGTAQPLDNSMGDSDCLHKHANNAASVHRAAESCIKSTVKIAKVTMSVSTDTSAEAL
Experiment: cell-based
Design: host or cells: PathHunter cell lines
Details: PathHunter agonist mode; read-out: CB1 Activity (β-Arrestin)
Here pEC50 is given on a logarithmic scale as minus log10 of the concentration in mol/L.

Input line: // lookup pEC50 for CCCCCCC(C)(C)c1cc(O)c2c(c1)OC(C)(C)[C@@H]1CC=C(C(=O)OC(C)C)C[C@@H]21
Output line: 7.33

Input line: // lookup pEC50 for CCCCCCC(C)(C)c1cc(O)c2c(c1)OC(C)(C)[C@@H]1CC=C(C(=O)NOC)C[C@@H]21
Output line: 7.31

Input line: // lookup pEC50 for CCCCCCC(C)(C)c1cc(O)c2c(c1)OC(C)(C)[C@@H]1CC=C(C#N)C[C@@H]21
Output line: 8.70

Input line: // lookup pEC50 for CCCCCCC(C)(C)c1cc(O)c2c(c1)OC(C)(C)[C@@H]1CC=C(C(=O)NOCCO)C[C@@H]21
Output line: 7.42

Input line: // lookup pEC50 for CC(C)(CCCCCCO)c1cc(O)c2c(c1)OC(C)(C)[C@@H]1CC=C(C(=O)O)C[C@@H]21
Output line: 6.54

Input line: // lookup pEC50 for CCCCCCC(C)(C)c1cc(O)c2c(c1)OC(C)(C)[C@@H]1CC=C(C(=O)NC3CCC3)C[C@@H]21
Output line: 7.95

====

Field: F. Provide a value for each of the compounds that follow.
Assay: Pharmacokinetics after PO dose in mice
Format: in vivo, Male C57BL/6 mice
Details: 10 mg/kg PO
Reply with just the number (in %).

Input line: // lookup F for CCCCCCC(C)(C)c1cc(O)c2c(c1)OC(C)(C)[C@@H]1CC=C(C(=O)NC[C@H](O)CO)C[C@@H]21
Output line: 23.11

Input line: // lookup F for CCCCCCC(C)(C)c1cc(O)c2c(c1)OC(C)(C)[C@@H]1CC=C(C(=O)NC(C)(C)CCO)C[C@@H]21
Output line: 37.4

Input line: // lookup F for CCCCCCC(C)(C)c1cc(O)c2c(c1)OC(C)(C)[C@@H]1CC=C(C(=O)NC[C@@H](O)CO)C[C@@H]21
Output line: 30.33

Input line: // lookup F for CCCCCCC(C)(C)c1cc(O)c2c(c1)OC(C)(C)[C@@H]1CC=C(C(=O)O)C[C@@H]21 [AJA, reference compound]
Output line: 70.79

Input line: // lookup F for CCCCCCC(C)(C)c1cc(O)c2c(c1)OC(C)(C)[C@@H]1CC=C(C(=O)OC(C)C)C[C@@H]21
Output line: 3.98

====

Target: UniProt:P34972
Test: CB2 competitive radioligand binding assay ([3H] WIN-55,212-2)
Set-up: expressed in transfected cells; host or cells: CHO-K1 cells
Details: Table 2; read-out: CB2 Binding Ki
Procedure: J Med Chem. 41(26): 5177-5187 (1998); and Munro S., et al. Molecular characterization of a peripheral receptor for cannabinoids. Nature 365:61-65 (1993). CB2 Radioligand Binding Assay: A compound of the invention (0.05 μM in 1% DMSO) was incubated with CHO-K1 cells expressing human recombinant CB2 receptor in buffer (20 mM HEPES, pH 7.0, 0.5% BSA) for 90 minutes at 37° C. in the presence of 2.4 nM [H^3] […]
Field: Ki. Provide a value for each of the compounds that follow.
Reply with just the number (in nM).

Input line: I'm curious: which Ki was measured for CCCCCCC(C)(C)c1cc(O)c2c(c1)OC(C)(C)[C@@H]1CC=C(C(=O)NC(CO)CO)C[C@@H]21 [Compound 25] tested on UniProt:P34972?
Output line: 73

Input line: I'm curious: which Ki was measured for CCCCCCC(C)(C)c1cc(O)c2c(c1)OC(C)(C)[C@@H]1CC=C(C(=O)NCC(=O)O)C[C@@H]21 [Compound 1] tested on UniProt:P34972?
Output line: 1310

Input line: I'm curious: which Ki was measured for CCCCCCC(C)(C)c1cc(O)c2c(c1)OC(C)(C)[C@@H]1CC=C(C(=O)NCCCO)C[C@@H]21 [Compound 13] tested on UniProt:P34972?
Output line: 12.4

Input line: I'm curious: which Ki was measured for CCCCCCC(C)(C)c1cc(O)c2c(c1)OC(C)(C)[C@@H]1CC=C(C(=O)NC[C@H](O)CO)C[C@@H]21 [Compound 56] tested on UniProt:P34972?
Output line: 41

Input line: I'm curious: which Ki was measured for CCCCCCC(C)(C)c1cc(O)c2c(c1)OC(C)(C)[C@@H]1CC=C(C(=O)NCC(O)CO)C[C@@H]21 (stereo partly drawn) [Compound 24] tested on UniProt:P34972?
Output line: 55

Input line: I'm curious: which Ki was measured for CCCCCCC(C)(C)c1cc(O)c2c(c1)OC(C)(C)[C@@H]1CC=C(C(=O)NC[C@@H](O)CO)C[C@@H]21 [Compound 55] tested on UniProt:P34972?
Output line: 33

Input line: I'm curious: which Ki was measured for CCCCCCC(C)(C)c1cc(O)c2c(c1)OC(C)(C)[C@@H]1CC=C(C(=O)NC3CCCCC3)C[C@@H]21 [Compound 16] tested on UniProt:P34972?
Output line: 26

Input line: I'm curious: which Ki was measured for CCCCCCC(C)(C)c1cc(O)c2c(c1)OC(C)(C)[C@@H]1CC=C(C(=O)NC(C)(C)CCO)C[C@@H]21 [Compound 15] tested on UniProt:P34972?
Output line: 36

Input line: I'm curious: which Ki was measured for CCCCCCC(C)(C)c1cc(O)c2c(c1)OC(C)(C)[C@@H]1CC=C(C(=O)N[C@H](C)CCO)C[C@@H]21 [Compound 14] tested on UniProt:P34972?
Output line: 56

====

Test: Pharmacokinetics after PO dose in mice
Assay type: in vivo, Male C57BL/6 mice
Conditions: 10 mg/kg PO
measurement type: Tlag
State the result as a value with its unit after it.

Input line: // lookup Tlag for CCCCCCC(C)(C)c1cc(O)c2c(c1)OC(C)(C)[C@@H]1CC=C(C(=O)O)C[C@@H]21 [AJA, reference compound]
Output line: 0 h

Input line: // lookup Tlag for CCCCCCC(C)(C)c1cc(O)c2c(c1)OC(C)(C)[C@@H]1CC=C(C(=O)OC(C)C)C[C@@H]21
Output line: 0.00 h

Input line: // lookup Tlag for CCCCCCC(C)(C)c1cc(O)c2c(c1)OC(C)(C)[C@@H]1CC=C(C(=O)NC[C@H](O)CO)C[C@@H]21
Output line: 0 h

Input line: // lookup Tlag for CCCCCCC(C)(C)c1cc(O)c2c(c1)OC(C)(C)[C@@H]1CC=C(C(=O)NC[C@@H](O)CO)C[C@@H]21
Output line: 0 h

Input line: // lookup Tlag for CCCCCCC(C)(C)c1cc(O)c2c(c1)OC(C)(C)[C@@H]1CC=C(C(=O)NC(C)(C)CCO)C[C@@H]21
Output line: 0.00 h

====

Target: CB2 receptor (Homo sapiens)
Sequence (P34972 whole entry): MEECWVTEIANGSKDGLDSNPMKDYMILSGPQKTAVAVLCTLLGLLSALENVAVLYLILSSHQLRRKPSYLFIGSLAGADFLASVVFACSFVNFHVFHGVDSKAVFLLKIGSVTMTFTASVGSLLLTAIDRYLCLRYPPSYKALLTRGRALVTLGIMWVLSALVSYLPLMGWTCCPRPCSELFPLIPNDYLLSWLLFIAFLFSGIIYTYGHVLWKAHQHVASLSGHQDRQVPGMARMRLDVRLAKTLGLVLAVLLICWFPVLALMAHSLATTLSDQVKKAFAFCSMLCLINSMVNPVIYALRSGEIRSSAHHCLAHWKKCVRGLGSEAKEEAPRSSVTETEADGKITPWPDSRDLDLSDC
Test: CB2 competitive radioligand binding assay ([3H] WIN-55,212-2)
Design: expressed in transfected cells; host or cells: CHO-K1 cells
Conditions: Table 3; read-out: Ki CB2
measurement type: Ki (nM)
Reply with just the number (in nM).

Input line: // lookup Ki for CCCCCCC(C)(C)c1cc(O)c2c(c1)OC(C)(C)[C@@H]1CC=C(C(=O)NOCCO)C[C@@H]21
Output line: 4.3

====

Target: CB2 receptor (Homo sapiens)
Assay: CB2 competitive radioligand binding assay ([3H] WIN-55,212-2)
Parameters: expressed in transfected cells; host or cells: CHO-K1 cells
Conditions: 0.05 μM compound, 2.4 nM [3H] WIN-55,212-2, 90 min 37° C.
measurement type: inhibition at 0.05 µM (%)
Reply with just the number (in %).

Input line: // lookup inhibition at 0.05 µM for CCCCCCC(C)(C)c1cc(O)c2c(c1)OC(C)(C)[C@@H]1CC=C(C(=O)OCC(O)CO)C[C@@H]21 (stereo partly shown)
Output line: 92

Input line: // lookup inhibition at 0.05 µM for CCCCCCC(C)(C)c1cc(O)c2c(c1)OC(C)(C)[C@@H]1CC=C(C(=O)NC3CCCCC3)C[C@@H]21
Output line: 57

Input line: // lookup inhibition at 0.05 µM for CCCCCCC(C)(C)c1cc(OC)c2c(c1)OC(C)(C)[C@@H]1CC=C(C(=O)NCCO)C[C@@H]21
Output line: 11

Input line: // lookup inhibition at 0.05 µM for CCCCCCC(C)(C)c1cc(O)c2c(c1)OC(C)(C)[C@@H]1CC=C(C(N)=O)C[C@@H]21
Output line: 57

Input line: // lookup inhibition at 0.05 µM for CCCCCCC(C)(C)c1cc(O)c2c(c1)OC(C)(C)[C@@H]1CC=C(C(=O)NCCC(=O)O)C[C@@H]21
Output line: 2

Input line: // lookup inhibition at 0.05 µM for CCCCCCC(C)(C)c1cc(O)c2c(c1)OC(C)(C)[C@@H]1CC=C(C(=O)NCCO)C[C@@H]21
Output line: 57

Input line: // lookup inhibition at 0.05 µM for CCCCCCC(C)(C)c1cc(O)c2c(c1)OC(C)(C)[C@@H]1CC=C(C(=O)N[C@H](Cc3ccc(O)cc3)C(=O)O)C[C@@H]21
Output line: 8
